Test system: Phytophthora infestans
Test: whole plant or invertebrate
Assay type: in vivo
Conditions: Phytophthora infestans, in Solanum lycopersicum, read-out: TLB control value (C.V.)
Label rule, in plain words: pest or weed control at 2 ppm of 90% and up is 1 (yes), under 90% is 0 (no).

Answered examples (3):
| Compound | Assigned category |
| --- | --- |
| CO/N=C(/C(=O)OC)c1ccccc1COc1ccc(C=C(Br)Br)cc1 | 1 (yes) |
| CNC(=O)/C(=N/OC)c1ccccc1COc1ccc(C=C(Br)Br)cc1 | 1 (yes) |
| CO/N=C(/C(=O)OC)c1ccccc1COc1ccc(C=C(Cl)Cl)cc1Cl | 1 (yes) |

Hello, I need to know if CNC(=O)/C(=N/OC)c1ccccc1COc1ccc(C=C(F)F)cc1 has measured pest or weed control at 2 ppm not below 90%. Thanks!
1 (yes)

Is pest or weed control at 2 ppm at least 90%? Consider CNC(=O)/C(=N/OC)c1ccccc1COc1ccc(C=C(Cl)Cl)cc1Br
1 (yes)
